test system: Methicillin-resistant Staphylococcus aureus (MRSA, ATCC 33591); experiment: Minimum bactericidal concentration (MBC) assay; format: cell-based; settings: Tables 11-21, no unit printed
No end group written: not given here.
Measured endpoint: MBC MRSA (µg/mL)
One number for each entry, in µg/mL.

MBC MRSA for KKMMKKGGKFGTFM-IGMGIR [Peptide 5878-K4-d72A] is 3

MBC MRSA for KTMMKSGGTFGTFMAIGMGIR [KU-5878-Q62K] is 90

MBC MRSA for KTMMQSGGTFGT-MAIGMGIR [Peptide 5878-d70F] is 200

MBC MRSA for KTMMQSGGTFGTFM-IGMGIR [Peptide 5878-d72A] is 160

Others:
MBC MRSA for KT-MQS-GTFGTFM-IG-GIR [5878-d60M, d64G, d72A, d75M] is 120

* * *

tested on: Pseudomonas aeruginosa (ATCC 27853); test: Minimum bactericidal concentration (MBC) assay; type: cell-based; conditions: Tables 11-21, no unit printed
No end group written: not given here.
Measured endpoint: log10(MBC Pseudomonas aeruginosa) (log10 of the value in µg/mL)
Scale: decimal log of MBC Pseudomonas aeruginosa, MBC Pseudomonas aeruginosa in µg/mL.

Record excerpt, results attached:
Form: item KK-MKKGGKFGTFMAIG-GIR [Peptide K4-d60M-d75M] ; test system Pseudomonas aeruginosa (ATCC 27853); log10(MBC Pseudomonas aeruginosa): 2.30

Form: item KT-MQSGGTFGTFM-IG-GIR [5878-d60M, d72A, d75M] ; test system Pseudomonas aeruginosa (ATCC 27853); log10(MBC Pseudomonas aeruginosa): 2.48

Form: item KTMMQSGGTFGTFMAIGMGIRQ [Peptide 5878-Q] ; test system Pseudomonas aeruginosa (ATCC 27853); log10(MBC Pseudomonas aeruginosa): 2.18

Form: item KTMMQSGGTFGTFMAIG-GIR [Peptide 5878-d75M] ; test system Pseudomonas aeruginosa (ATCC 27853); log10(MBC Pseudomonas aeruginosa): 2.00

Would you be so kind as to report log10(MBC Pseudomonas aeruginosa) for each listed record?
1. KTMMQSGGTFGTFMAIGMGGR [KU-5878-I77G]
2. KKMMKKGGKFGTFMAI-MGIR [Peptide 5878-K4-d74G]
3. KTMMQSGGTF-TFMAIGMGIR [Peptide 5878-d68G]

1.90
0.30
1.40

* * *

system: Methicillin-resistant Staphylococcus aureus (MRSA, ATCC 33591); assay: Minimum bactericidal concentration (MBC) assay; format: cell-based; conditions: Tables 11-21, no unit printed
No end group written: not given here.
Please provide measured MBC MRSA for the entries that follow.
Numbers only, in µg/mL.

Record excerpt, results attached:
MBC MRSA for KTMMQSGGTFG-FMAIGMGIR [Peptide 5878-d69T] is 140

MBC MRSA for KTMM-SGGTFGTFMAIGMGIR [Peptide 5878-4620] is 100

MBC MRSA for KKMMKKGGKFGTFMAIGMGI- [Peptide 5878-K4-78R] is 4

MBC MRSA for KKMM-KGGKFGTF-AIG-GIR [d 62K 71M 75M] is 3

MBC MRSA for KKMMKKGGKFG-F-AIG-GIR [d 69T 71M 75M] is 2

MBC MRSA for KTMMQSGGTFGTFMAIG-GIR [Peptide 5878-d75M] is 110

MBC MRSA for KTMMQSGGTFGTFMAIGM-IR [Peptide 5878-d76G] is 90

MBC MRSA for KTMMQ-GGTFGTFMAIGMGIR [Peptide 5878-d63S] is 200

Would you be so kind as to report MBC MRSA for each listed record?
1. KKMMKKGGKFGTFMAIGMG-R [Peptide 5878-K4-d77I]
2. KTMMQSGGKFGTFMAIGMGIR [KU-5878-T66K]
3. KTMMQSGGTFGTF-AIGMGIR [Peptide 5878-d71M]
4. KKMMKKGGKFGTF--IG-GIR [d 71M 72A 75M]
5. -KMMKKGGKFGTF-AIGMGIR [Peptide K4-d58K-d71M]
6. KTMMQSGGRFGTFMAIGMGIR [KU-5878-T66R]
7. KKMMQSGGTFGTFMAIGMGIR [KU-5878-T59K]

[4, 80, 300, 3, 10, 90, 50]

Would you be so kind as to report MBC MRSA for each listed record?
1. KTMMQSGGTFGTFMAI-MGIR [Peptide 5878-d74G]
2. KK-MKKGGKFGTF-AIGMGIR [Peptide K4-d60M-d71M]

25
12

MBC MRSA for KTMMQSGGTFGTFMAIGMGIR [KU-5878] is 110

* * *

system: Pseudomonas aeruginosa (ATCC 27853); assay: Minimum bactericidal concentration (MBC) assay; format: cell-based; conditions: Tables 11-21, no unit printed
No end group written: not given here.
Measured endpoint: MBC Pseudomonas aeruginosa (µg/mL)
Answers are plain numbers, in µg/mL.

Record excerpt, results attached:
MBC Pseudomonas aeruginosa for KK-MKKGGKFGTF-AIGMGIR [Peptide K4-d60M-d71M] is 10

MBC Pseudomonas aeruginosa for KTMMQSGGTFGTFMAI-MGIR [Peptide 5878-d74G] is 20

MBC Pseudomonas aeruginosa for KKMMKKGGKFGTFMAIGMG-R [Peptide 5878-K4-d77I] is 4

Would you be so kind as to report MBC Pseudomonas aeruginosa for each listed record?
1. KKMMKKGGKFGTF-AIG-GIR [Peptide K4-d71M-d75M]
2. KTMMQRGGTFGTFMAIGMGIR [KU-5878-S63R]
3. KTMMQAGGTFGTFMAIGMGIR [KU-5878-S63A]
4. KTMMQSGGTFGTFMAIGMGIR [KU-5878]
5. KK-MKKGGKFGTF-AIG-GIR [d 60M 71M 75M]

4
20
300
100
2

Would you be so kind as to report MBC Pseudomonas aeruginosa for each listed record?
1. KTMMQSGGTFGTFMAIGMGIRRRR [Peptide 5878-3R]
2. KKMMKKGGTFGTFMAIGMGIR [KU-5878-K3 (T59K, Q62K, S63K)]
3. KKMMQSGGTFGTFMAIGMGIR [KU-5878-T59K]

1: 8; 2: 4; 3: 50

Would you be so kind as to report MBC Pseudomonas aeruginosa for each listed record?
1. KTMMQSGGKFGTFMAIGMGIR [KU-5878-T66K]
2. KK-MKKGGKFGTF--IGMGIR [d 60M 71M 72A]

1: 80; 2: 8

* * *

tested on: Methicillin-resistant Staphylococcus aureus (MRSA, ATCC 33591); experiment: Minimum bactericidal concentration (MBC) assay; type: cell-based; conditions: Tables 11-21, no unit printed
No end group written: not given here.
MBC MRSA strictly under 4 µg/mL means Met; at 4 µg/mL or over means Not met.

Past entries and their recorded results:
Decide: MBC MRSA of KTMMQSGGTFGTKMAIGMGIR [KU-5878-F70K] strictly below 4 µg/mL?
Not met

Decide: MBC MRSA of KTMMQSGGTFGTFMAIGMGI [KU-5877] strictly below 4 µg/mL?
Not met

Decide: MBC MRSA of KTMMQSGGTAGTFMAIGMGIR [KU-5878-F67A] strictly below 4 µg/mL?
Not met

Decide: MBC MRSA of KSMMQSGGTFGTFMAIGMGIR [KU-5878-T59S] strictly below 4 µg/mL?
Not met

Decide: MBC MRSA of KKMM-KGGKFGTF-AIGMGIR [Peptide K4-d62K-d71M] strictly below 4 µg/mL?
Not met

Decide: MBC MRSA of KTMMQSGGTFGTFMAIGMG-R [Peptide 5878-d77I] strictly below 4 µg/mL?
Not met

Decide: MBC MRSA of KKMMKKGGKFG-FMAIGMGIR [Peptide 5878-K4-d69T] strictly below 4 µg/mL?
Met

Decide: MBC MRSA of KTMMQSGGTF-TFMAIGMGIR [Peptide 5878-d68G] strictly below 4 µg/mL?
Not met

Shifting focus to the substance that follows.
Decide: MBC MRSA of KTMMQSGGTFGTFMAKGMGIR [KU-5878-I73K] strictly below 4 µg/mL?
Not met

* * *

Please provide measured MBC MRSA for the entries that follow.
system: Methicillin-resistant Staphylococcus aureus (MRSA, ATCC 33591); assay: Minimum bactericidal concentration (MBC) assay; type: cell-based; conditions: Tables 11-21, no unit printed
No end group written: not given here.

MBC MRSA for KTMMQSGGTFGTFMAIGMGAR [KU-5878-I77A] is > 300 µg/mL

MBC MRSA for KKIIKKGGKFGTFIAIGIGIR [Peptide K4-4MI] is 3

// switching to the query sequence
MBC MRSA for KTMMQSGGSFGTFMAIGMGIR [KU-5878-T66S] is > 300 µg/mL
